Tested on: ESR1 transcription in MVLN cells
Assay: MVLN reporter assay: repression of ESR1 transcription (luciferase signal)
Type: cell-based
Conditions: Homo sapiens, MVLN, 24 h, luciferase signal after 24 h, read-out: MVLN reporter assay, IC50 [M] (arithmetic mean)
IC50 reference

{"compound": "O=C(NS(=O)(=O)c1cccc2c1OCCO2)c1cc2c(F)cc(N3CCC3)cc2o1", "unit_info": "M", "IC50": "1.35e-07"}
{"compound": "CC(C)Oc1ccccc1S(=O)(=O)NC(=O)c1cc2c(F)cc(N3CC(F)C3)cc2o1", "unit_info": "M", "IC50": "7.14e-08"}
{"compound": "CC(C)N(C)c1cc(F)cc(F)c1S(=O)(=O)NC(=O)c1cc2c(F)cc(N3CC(F)C3)cc2o1", "unit_info": "M", "IC50": "8.64e-07"}
{"compound": "COc1ccc(N2CCN(C)CC2)cc1S(=O)(=O)NC(=O)c1cc2c(F)cc(N3CCC3)cc2o1", "unit_info": "M", "IC50": "1.04e-06"}
{"compound": "Cc1ccc2cccc(S(=O)(=O)NC(=O)c3cc4c(F)cc(N5CCC5(C)C)cc4o3)c2n1", "unit_info": "M", "IC50": "1.91e-06"}
{"compound": "O=C(NS(=O)(=O)c1ccccc1OC1CC1)c1cc2c(F)cc(N3CCC3)cc2o1", "unit_info": "M", "IC50": "3.83e-08"}
{"compound": "CC(=O)Nc1ccc(S(=O)(=O)NC(=O)c2cc3c(F)cc(N4CCC4)cc3o2)c2ccccc12", "unit_info": "M", "IC50": "9.61e-06"}
{"compound": "Cn1ccc2cccc(S(=O)(=O)NC(=O)c3cc4c(F)cc(N5CCC5)cc4o3)c21", "unit_info": "M", "IC50": "8.57e-07"}
{"compound": "CCCOc1cccc(OCC)c1S(=O)(=O)NC(=O)c1cc2c(F)cc(N3CCC3)cc2o1", "unit_info": "M", "IC50": "1.36e-07"}
{"compound": "Cc1ccc2cccc(S(=O)(=O)NC(=O)c3cc4c(F)cc(N5CCC5C(F)F)cc4o3)c2n1 (racemic)", "unit_info": "M", "IC50": "1.45e-06"}
{"compound": "O=C(NS(=O)(=O)c1c(Cl)ccc2c1OC(F)(F)O2)c1cc2c(F)cc(N3CCC3)cc2o1", "unit_info": "M", "IC50": "1.2e-06"}
{"compound": "Cc1noc(-c2ccccc2S(=O)(=O)NC(=O)c2cc3c(F)cc(N4CCC4)cc3o2)n1", "unit_info": "M", "IC50": "7.04e-07"}
{"compound": "CCOc1ccccc1S(=O)(=O)NC(=O)c1cc2ccc(N3CC(F)C3)cc2o1", "unit_info": "M", "IC50": "1.33e-07"}
{"compound": "CCc1ccc(C)c(S(=O)(=O)NC(=O)c2cc3c(F)cc(N4CCC4)cc3o2)c1", "unit_info": "M", "IC50": "5.79e-07"}
{"compound": "COC(=O)Cc1ccc2c(S(=O)(=O)NC(=O)c3cc4c(F)cc(N5CCC5)cc4o3)cccc2c1", "unit_info": "M", "IC50": "2.5e-06"}
{"compound": "O=C(NS(=O)(=O)c1cc(Br)cc2c1OCC2)c1cc2c(F)cc(N3CCC3)cc2o1", "unit_info": "M", "IC50": "2.24e-07"}
